Test system: Pseudomonas aeruginosa K 799/61
Test Summary: Agar dilution MIC in DST agar (Ericsson and Sherris)
Format: cell-based
Cond: Pseudomonas aeruginosa, K799/61, read-out: MIC Pseu. 799
Assay Endpoint: MIC (µg/mL)
Provide the reading as a plain figure in µg/mL.

Here are 3 molecules together with their reported answers.
{"Molecule": "CO[C@H]1/C=C/O[C@@]2(C)Oc3c(C)c(O)c4c(O)c(c5nc(N6CCN(C7CCCCC7)CC6)[nH]c5c4c3C2=O)NC(=O)/C(C)=C\\C=C\\[C@H](C)[C@H](O)[C@@H](C)[C@@H](O)[C@@H](C)[C@H](OC(C)=O)[C@@H]1C [Verbindung 51]", "Experimental Result": 8}
{"Molecule": "CO[C@H]1/C=C/O[C@@]2(C)Oc3c(C)c(O)c4c(O)c(c5nc(N6CCN(CC7CC7)CC6)[nH]c5c4c3C2=O)NC(=O)/C(C)=C\\C=C\\[C@H](C)[C@H](O)[C@@H](C)[C@@H](O)[C@@H](C)[C@H](OC(C)=O)[C@@H]1C [Verbindung 54]", "Experimental Result": 16}
{"Molecule": "C=CCN1CCN(c2nc3c([nH]2)c2c(O)c4c(O)c(C)c5c(c43)C(=O)[C@@](C)(O/C=C/[C@H](OC)[C@@H](C)[C@@H](OC(C)=O)[C@H](C)[C@H](O)[C@H](C)[C@@H](O)[C@@H](C)/C=C/C=C(/C)C(=O)N2)O5)CC1 [Verbindung 44]", "Experimental Result": 32}

For the next question, use this molecule.
For the molecule COCCN(CCOC)c1nc2c([nH]1)c1c(O)c3c(O)c(C)c4c(c32)C(=O)[C@@](C)(O/C=C/[C@H](OC)[C@@H](C)[C@@H](OC(C)=O)[C@H](C)[C@H](O)[C@H](C)[C@@H](O)[C@@H](C)/C=C/C=C(/C)C(=O)N1)O4 [Verbindung 16] , report MIC.
8

====

Test system: Proteus morganii 1518
Assay Endpoint: MIC
// return the numeric value with its unit appended

{"Compound": "CO[C@H]1/C=C/O[C@@]2(C)Oc3c(C)c(O)c4c(O)c(c5[nH]c(N6CCC(N(C)C)CC6)nc5c4c3C2=O)NC(=O)/C(C)=C\\C=C\\[C@H](C)[C@H](O)[C@@H](C)[C@@H](O)[C@@H](C)[C@H](OC(C)=O)[C@@H]1C [Verbindung 23]", "Assay Endpoint": "MIC", "Experimental Result": "16 µg/mL"}

System Proteus morganii 1518. Read-out MIC. Item COC1C=COC2(C)Oc3c(C)c(O)c4c(O)c(c5nc(N(C)C(C)C)[nH]c5c4c3C2=O)NC(=O)C(C)=CC=CC(C)C(O)C(C)C(O)C(C)C(OC(C)=O)C1C (stereo not shown) [Verbindung 8] . Report value.
8 µg/mL

System Proteus morganii 1518. Read-out MIC. Item CO[C@H]1/C=C/O[C@@]2(C)Oc3c(C)c(O)c4c(O)c(c5nc(N6CCN(c7ccccn7)CC6)[nH]c5c4c3C2=O)NC(=O)/C(C)=C\C=C\[C@H](C)[C@H](O)[C@@H](C)[C@@H](O)[C@@H](C)[C@H](OC(C)=O)[C@@H]1C [Verbindung 59] . Report value.
2 µg/mL

System Proteus morganii 1518. Read-out MIC. Item C=C(C)CN1CCN(c2nc3c([nH]2)c2c(O)c4c(O)c(C)c5c(c43)C(=O)[C@@](C)(O/C=C/[C@H](OC)[C@@H](C)[C@@H](OC(C)=O)[C@H](C)[C@H](O)[C@H](C)[C@@H](O)[C@@H](C)/C=C/C=C(/C)C(=O)N2)O5)CC1 [Verbindung 46] . Report value.
8 µg/mL

====

Tested on: Proteus morganii 1518
Assay Endpoint: MIC (µg/mL)
Provide the reading as a plain figure in µg/mL.

{"Compound": "CCN(CC)c1nc2c3c(O)c4c(O)c(C)c5c(c4c2[nH]1)C(=O)C(C)(OC=CC(OC)C(C)C(OC(C)=O)C(C)C(O)C(C)C(O)C(C)C=CC=C(C)C(=O)N3)O5 (stereo not drawn) [Verbindung 6]", "MIC [µg/mL]": 128}

System Proteus morganii 1518. Read-out MIC. Item CO[C@H]1/C=C/O[C@@]2(C)Oc3c(C)c(O)c4c(O)c(c5nc(N6CCN(CC7CC7)CC6)[nH]c5c4c3C2=O)NC(=O)/C(C)=C\C=C\[C@H](C)[C@H](O)[C@@H](C)[C@@H](O)[C@@H](C)[C@H](OC(C)=O)[C@@H]1C [Verbindung 54] . Report value.
8

System Proteus morganii 1518. Read-out MIC. Item CO[C@H]1/C=C/O[C@@]2(C)Oc3c(C)c(O)c4c(O)c(c5nc(N6CCN(C7CCCCC7)CC6)[nH]c5c4c3C2=O)NC(=O)/C(C)=C\C=C\[C@H](C)[C@H](O)[C@@H](C)[C@@H](O)[C@@H](C)[C@H](OC(C)=O)[C@@H]1C [Verbindung 51] . Report value.
8

System Proteus morganii 1518. Read-out MIC. Item CO[C@H]1/C=C/O[C@@]2(C)Oc3c(C)c(O)c4c(O)c(c5nc(N6CCN(C7CCCC7)CC6)[nH]c5c4c3C2=O)NC(=O)/C(C)=C\C=C\[C@H](C)[C@H](O)[C@@H](C)[C@@H](O)[C@@H](C)[C@H](OC(C)=O)[C@@H]1C [Verbindung 50] . Report value.
8

System Proteus morganii 1518. Read-out MIC. Item CO[C@H]1/C=C/O[C@@]2(C)Oc3c(C)c(O)c4c(O)c(c5[nH]c(N6CCC(N7CCCCC7)CC6)nc5c4c3C2=O)NC(=O)/C(C)=C\C=C\[C@H](C)[C@H](O)[C@@H](C)[C@@H](O)[C@@H](C)[C@H](OC(C)=O)[C@@H]1C [Verbindung 24] . Report value.
8

System Proteus morganii 1518. Read-out MIC. Item COC1C=COC2(C)Oc3c(C)c(O)c4c(O)c(c5nc(N6CCN(CC7CCCCC7)CC6)[nH]c5c4c3C2=O)NC(=O)C(C)=CC=CC(C)C(O)C(C)C(O)C(C)C(OC(C)=O)C1C (stereo not drawn) [Verbindung 5] . Report value.
8

System Proteus morganii 1518. Read-out MIC. Item CCC(C)CCN1CCN(c2nc3c([nH]2)c2c(O)c4c(O)c(C)c5c(c43)C(=O)[C@@](C)(O/C=C/[C@H](OC)[C@@H](C)[C@@H](OC(C)=O)[C@H](C)[C@H](O)[C@H](C)[C@@H](O)[C@@H](C)/C=C/C=C(/C)C(=O)N2)O5)CC1 (stereo partly drawn) [Verbindung 42] . Report value.
8

System Proteus morganii 1518. Read-out MIC. Item CO[C@H]1/C=C/O[C@@]2(C)Oc3c(C)c(O)c4c(O)c(c5nc(N6CCN(Cc7ccccn7)CC6)[nH]c5c4c3C2=O)NC(=O)/C(C)=C\C=C\[C@H](C)[C@H](O)[C@@H](C)[C@@H](O)[C@@H](C)[C@H](OC(C)=O)[C@@H]1C [Verbindung 60] . Report value.
32

System Proteus morganii 1518. Read-out MIC. Item CO[C@H]1/C=C/O[C@@]2(C)Oc3c(C)c(O)c4c(O)c(c5nc(N6CCN(c7cccc(C(F)(F)F)c7)CC6)[nH]c5c4c3C2=O)NC(=O)/C(C)=C\C=C\[C@H](C)[C@H](O)[C@@H](C)[C@@H](O)[C@@H](C)[C@H](OC(C)=O)[C@@H]1C [Verbindung 53] . Report value.
2
